- run_description: yeast display, Sf9 membrane polyspecificity reagent, FACS + sequencing; frameworks hold sequencing errors
attribute_measured: polyreactivity (PSR sort gate)

INSERT INTO results (sequence_record, observed_result) VALUES
  ('QVQLVESGGGLVQAGGSLRLSCAASGRTFVPYAMGWYRQAPGKERELVAAITWSGGRTRYADSVKGRFTISRDNAKNTVYLQMNSLKPEDTAVYYCARYYWLYSSSYDYWGQGTQVTVSS', 'high polyreactivity'),
  ('QVQLVESGGGLVQAGGSLRLSCAASGRMFTHNVMGWYRQAPGKERELVAAISASGGSTYYADSVKGRFTISRDNAKNTVYLQMNSLKPEDTAVYYCNAGDYRTFYRRFDYWGQGTQVTVSS', 'low polyreactivity'),
  ('QVQLVESGGGLVQAGGSLRLSCAASGRIFVGYAIGWYRQAPGKERELVAAINRSGSSTYYADSVKGRYTISRDNAKNTFYLQMNSLKPEDTAVYYCNARSGNRYGPRYDYWGQGTQVTVSS', 'high polyreactivity'),
  ('QVQLVESWGGLVQAGGSLRLSCAASGITFDGNAMGWYRQAPGKERELVAGISGSGGGTYYADSVKGRFTISRDNAKNTVYLHMNSLKPEDTAVYYCAADTSTSHAYDYWGQGTQVTVSS', 'low polyreactivity'),
  ('QVQLVESGGGLVQAGGSLRLSCAASGITFVRYAMGWYRQAPGKERELVAAINFSGGNTYYADSVKGRFTISRDNAKNTVYLQMNSLKPEDTAVYYCNAKRNYVRGRQGDWYIGYGYWGQGTQVTVSS', 'high polyreactivity');

----------
- run_description: yeast display, Sf9 membrane polyspecificity reagent, FACS + sequencing; frameworks hold sequencing errors
attribute_measured: polyreactivity (PSR sort gate)

INSERT INTO assay_data (sequence_record, observed_result) VALUES
  ('QVQLVESGGGLVQAGGSLRLSCAASGSILVYYAMGWYRQAPGKEREFVAAITRSGGSTYYADSVKGRFTISRDNAKNTVYLQMNSLKPEDTAVYYCNARDVVWKRFTRYDFWGQGTQVTVSS', 'high polyreactivity'),
  ('QVQLVESGGGLVQAGGSLRLSCAASGSTFRRNVMGWYRQAPGKERELVAAISRSGGRTYYADSVKGRFTISRDNAKNTVYLQMNSLKPEDTAVYYCNATRAGENPDGGDEYWGQGTQVTVSS', 'high polyreactivity'),
  ('QVQLVESGGGLVQAGGSLRLSCAASGSTFYKSTMGCYRQPPGKESELVPAISGSATTTYYADSVKGRFTISRDNAKNTVYLQMNSLKPEDTAVYYCAARRFSPGSSGHGYWGQGTQVNVSS', 'high polyreactivity'),
  ('QVQLVESGGGVVQAGGSLRLSCAASGSTFLPYAMGWYRQAPGKERELVAAITWRTGSTYYADSVKGRFTSSRDNAQNTVYLQMNSLKPEDTAVYYCNAKQRGKFDYWGQGTQVTVSS', 'low polyreactivity'),
  ('QVQLVESGGGLVQAGGSLRLSCAASGITFWQNTMGWYRQAPGKERELVAAISWTGGRTYYADSVKGRFTISRDNAKNTVYLQMNSLKPEDTAVYYCNTGHEEDEDDYWGQGTQVTVSS', 'low polyreactivity');

----------
- run_description: yeast display, Sf9 membrane polyspecificity reagent, FACS + sequencing; frameworks hold sequencing errors
attribute_measured: polyreactivity (PSR sort gate)

INSERT INTO measurements (sequence_record, observed_result) VALUES
  ('QVQLVESGGGLVQAGGSLRLSCAASGSIFNSNAMGWYRQAPGTERELDAGISNIGGSTYYADSVKGRFTISRDYAKNTVYLQMNSLKPEDTAVYFCNADRLQPNRYYYWGQGTQVTVSS', 'high polyreactivity'),
  ('QVQLVESGGGLVQAGGSLRLSCAASGSIFGKNAMGWYRQAPGKEREFVAAITNTGGDTYYADSVKGRFTISRDNAKNNVYLQMNSLKPEDTAVYYCNARKRKTSLYKFNYWGQGTQVTVSS', 'high polyreactivity'),
  ('QVQLVESGGGLVQAGGSLRLSCAASGSTFAGYVMGWSRQAPGKERELVAAISRSGGSTYYADSVKGRFTISRDNAKNTVYLQMNSLKPEDTAVYYCNARYNTQRYRFLVQGDYWGQGTQVTVSS', 'high polyreactivity'),
  ('QVQLVESGGGLVQAGGSLRLSCAASGRIFVLNAMGWYRQAPGKERELVAGITDGGSTNYADSVKGRFTISRDNAKNTVYLEMNSLKPEDTAVYYCAAVVYEYLYDFQAFVEDAGYYWGQGTQVTVSS', 'low polyreactivity'),
  ('QVQLVESGGGLVQAGGSLRLSCAASGSIFRYYAMGWYRQAPGKERELVAAISGSGASTYYADSVKGRFTISRDNAKNTVYLQMNSLKPEDTEVYFCAAYRGPRHHYPSVYNWGYDYWGQGTQVTVSS', 'high polyreactivity'),
  ('QVQLQECGGGLVQAGGSLRLSCAASGTFSNSVKWLYCQAPGKEREFVATIGVGGSTNYADSVIGRFTISRDNAKNTVYLQMNSRKQEDTAVYHCAAYGAASNFHYYRGQGTQVTVSS', 'low polyreactivity'),
  ('QVQLVESGGGLVQAGGSLRLSCAASGSIFFANAMGWYRQAPGKERELVAAITGSGDITYYADSVKGRFTISRDNAKNTVYLQMNSLKPEDTAVYYCAKRYIYVTHLRHPRYYYWGQGTQVTVSS', 'low polyreactivity'),
  ('QVQLVESGGGLVQAGGILRLSCAASGLIFPPNAMGWYRQAPGKERELVASITRSGGSTYYADSVKGRFTISRDNAKNTVYLQMNSLKPEDTAVYYCAAYLDTSRYGVLYDYWGQGTQVTVSS', 'low polyreactivity'),
  ('QVQLVESGGGLVQAGGSLRLSCAASGFTFYLNAKGWYRQAPGKERELVAAITGSGGSTYYADSVKGRFTISRDNAKNTVYLQMNSLKPEDTAVYYCAADLYFYVISSGYGFYYWGQGTQVTVSS', 'low polyreactivity'),
  ('QVQLVESGGGLVQAGGSLRLSCAASGSIFYEYAMGWYRQAPGKEREFVAAISSSGGSTYYADSVKGRFTISRDNAKNTVYLQMNSLKPEDTAVYYCAADIYYYLWGLYYWGQGTQVTVSS', 'low polyreactivity'),
  ('QVQLVESGGGLVQAGGSLRLSCAASGSTFNFNAMGWYRQAPGKERELVAAISSSGGSTYYADSVKGRFTISRDNAKNTVYLQMNSLKPEDTAVYYCATVLRKSPLYYYWGQGTQVTVSS', 'high polyreactivity'),
  ('QVQLVESGGGLVQAGGSLRLSCAASGSTFPDYVMGWYRQAPGKERELVAAISSIGGSTYYADSVKGRFTISRDKAKNTVYLQMNSLKPEDTAVYYCAAENSYFYPFDYWGQGTQVTVSS', 'low polyreactivity'),
  ('QVQLQESVGGQVQAGVSLRLICAASCTISQEDWMGWYRQAPAKEREFVAAIGLGSNTNYADSLKGRFTISRDNAKNTVDLQMNSLKPEDTAVYYCAVSVWQYSDHVYRGQGTQVTVSS', 'low polyreactivity'),
  ('QVQLVESGGGLVQAGGSLRISCAASGFIFGGYAMGWYRQAPGKERELVAAISYSGGSTYYADSVKGRFTISRDNAKNTVYLQMNSLKPEDTAVYYCAVGYPYRYDYWGQGTQVTVSS', 'high polyreactivity'),
  ('QVQLVESGGGLVQAGCSLRGSCAAYRSTFIRYAMGWSRPAPGKERELVAAITWRGGSTYYADSVKGRFTISRDNEKNTVYLQMKSLKPDDSAVSFCAARDRDTRNYYWVQGTQVTVSS', 'high polyreactivity'),
  ('QVQLVESGGGLVQAGGSLRLSCAASGNTFRIYAMGWYRQAPGKERELVAAISQSGGSTYYADSVKVRFTISRDNAKYTVYLQMNSLKPEDTAVYYCQLIRRGHDYWGQGTQVTVSS', 'high polyreactivity'),
  ('QVQLVESGGGLVQAGGSLRLSCAASGRIFRRYTMGWYRQAPGKERELVAAITWNGGRTYYADSVKGRFTISRDNAKNTVYLQMNSLKPEDTAVYYCAARRQGGYGYDYWGQGTQVTVSS', 'high polyreactivity'),
  ('QVQLEDSGGGLVQAGGTLRLSCAASGIIFAYNYMGWNRHATRKERELVATISSAGNTNYADSVKGRFTISRDNAKNTVYLQMNSLKPEETAVYYCAAEFFIVVTDEYDYWGQGTQVTVSS', 'low polyreactivity'),
  ('QVQLVESGGGLVQAGGSLRLSCAASGSNFAKNAMGWYRQAPGKERELVAAITSSGGSTYYADSVKGRFTISRDNAKNTVYLQMNSLNPEDTAVYYCARPNDWYHYHGWYWSIYRYDYWGQGTQVTVSS', 'high polyreactivity'),
  ('QVQLVESGGGLVQAGGSLRLSCAASGNTFNSYAMGWYRQAPGKEREFVAAISGSGSSTYYADSVKGRFTISRDNAKNTVYLQMNSLKPEDTAVYYCAARWRYYGSFDYWGQGTQVTVSS', 'high polyreactivity'),
  ('QVQLVESGGGLVQAGGSLRLSCAASGSTFNSYAMGWYRQAPGKERELVAAITSSVGSTYYADSVKGRFTISRDNAKYTVYLQMNSLKPEDTAVYYCAADYFSYWYFSGYDYWGQGTQVTVSS', 'low polyreactivity');
